Molecular target: human ALK5 (ALK5 T204D kinase domain) (Homo sapiens, UniProt P36897, T204D)
Construct: The kinase domain of human ALK5 (amino acids 200-503); made in house; host or cells: insect cells (baculovirus)
Sequence (P36897 200-503 T204D): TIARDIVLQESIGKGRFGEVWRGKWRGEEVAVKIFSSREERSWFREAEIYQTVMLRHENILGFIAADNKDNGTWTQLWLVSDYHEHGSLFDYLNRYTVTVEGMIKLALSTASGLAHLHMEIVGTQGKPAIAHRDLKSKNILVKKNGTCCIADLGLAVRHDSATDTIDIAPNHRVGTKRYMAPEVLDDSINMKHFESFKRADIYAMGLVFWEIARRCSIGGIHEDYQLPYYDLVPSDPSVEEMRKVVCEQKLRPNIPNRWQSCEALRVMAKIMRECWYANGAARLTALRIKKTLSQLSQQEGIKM
Experiment: ALK5 kinase assay, [33P] phosphate incorporation into casein
Assay type: biochemical
Conditions: casein substrate, 1 μM unlabelled ATP
Description: The kinase activity of ALK5 is assessed by measuring radiolabelled phosphate [33P] incorporation in to the generic substrate, casein. The kinase domain of human ALK5 (amino acids 200-503) is fused to an N-terminal histidine tag. […] Test compounds and reference compounds are dissolved in assay buffer without DTT containing 5% (v/v) DMSO. […] Total enzyme activity is determined by measuring ALK5 T204D activity in the absence of ALK5 kinase inhibitor reference compounds. […]
Measure: IC50 (µM)
Supply the numeric figure in µM, leaving out any unit text.

Consider the worked cases shown below.
compound="c1ccc(-c2cc(-c3cccnc3)cc(NCCc3c[nH]c4ccccc34)n2)nc1 [Example 1.10]" reported=0.057
compound="[2H]C([2H])([2H])N1CCN(Cc2ccc(-c3cncc(-c4cc(-c5ccccn5)nc(C(C)(C)O)c4)c3)cc2)CC1 [Example 2.85]" reported=0.074
compound="CC(C)(O)c1cc(-c2cncc(-c3cnn(C4CCNCC4)c3)c2)cc(-c2ccccn2)n1 [Example 2.88]" reported=0.022
compound="CNc1cc(-c2cncc(-c3ccc(C(=O)N4CCN(C)CC4)cc3)c2)cc(-c2ccccn2)n1 [Example 2.1]" reported=0.017

// next entry
human ALK5 (ALK5 T204D kinase domain) (Homo sapiens, UniProt P36897, T204D) / IC50 / CC(C)N1CCC(n2cc(-c3cncc(-c4cc(-c5ccccn5)nc(C(C)(C)O)c4)c3)cn2)CC1 [Example 2.89] : value?
0.017

Value source: patent US8343966B2
